Target: Aurora kinase A (Homo sapiens) (UniProt O14965);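 further: values are mean percent inhibition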
Sequence (whole entry): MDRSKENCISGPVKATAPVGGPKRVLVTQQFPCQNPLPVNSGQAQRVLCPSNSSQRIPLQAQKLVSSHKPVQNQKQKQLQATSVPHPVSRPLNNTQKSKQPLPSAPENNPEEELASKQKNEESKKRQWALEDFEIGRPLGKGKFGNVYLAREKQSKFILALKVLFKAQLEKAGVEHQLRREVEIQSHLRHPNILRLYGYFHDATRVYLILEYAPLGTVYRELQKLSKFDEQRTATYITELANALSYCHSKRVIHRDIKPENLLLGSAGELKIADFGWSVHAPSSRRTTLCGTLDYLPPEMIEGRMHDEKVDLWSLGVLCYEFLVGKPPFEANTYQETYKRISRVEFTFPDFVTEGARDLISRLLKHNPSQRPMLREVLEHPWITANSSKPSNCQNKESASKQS
Settings: at 1 µM
quantity-name: inhibition (%)
Only the number, expressed in %, is required.

Example entries begin here.
COc1cccc(-n2ncc3c(N/N=C/c4cccc(F)c4)ncnc32)c1: 16.9
Nc1nc(-c2ccc3c(c2)C(=Cc2cc(Br)c(O)c(Br)c2)C(=O)N3)cs1: 29.2
O=C(Nc1n[nH]c2nc(-c3ccco3)c(Br)cc12)C1CC1: 45.6
COc1cc(C)c(NC(=O)CN(C)C)cc1Nc1nc(Nc2cccc(F)c2C(N)=O)c2cc[nH]c2n1: 13.5
Cc1cc(O)cc(C)c1/C=C/c1cncc(-c2nn[nH]n2)c1: -0.41

Now for the molecule whose inhibition we want.
Entry CCn1c(-c2nonc2N)nc2c(C#CC(C)(C)O)nc(CN3CCCC3)cc21 — recorded inhibition = 3.35

----------
Biological target: Serine/threonine-protein kinase 3 (Homo sapiens);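 further: each value is the mean inhibition of MST2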
Sequence (whole entry): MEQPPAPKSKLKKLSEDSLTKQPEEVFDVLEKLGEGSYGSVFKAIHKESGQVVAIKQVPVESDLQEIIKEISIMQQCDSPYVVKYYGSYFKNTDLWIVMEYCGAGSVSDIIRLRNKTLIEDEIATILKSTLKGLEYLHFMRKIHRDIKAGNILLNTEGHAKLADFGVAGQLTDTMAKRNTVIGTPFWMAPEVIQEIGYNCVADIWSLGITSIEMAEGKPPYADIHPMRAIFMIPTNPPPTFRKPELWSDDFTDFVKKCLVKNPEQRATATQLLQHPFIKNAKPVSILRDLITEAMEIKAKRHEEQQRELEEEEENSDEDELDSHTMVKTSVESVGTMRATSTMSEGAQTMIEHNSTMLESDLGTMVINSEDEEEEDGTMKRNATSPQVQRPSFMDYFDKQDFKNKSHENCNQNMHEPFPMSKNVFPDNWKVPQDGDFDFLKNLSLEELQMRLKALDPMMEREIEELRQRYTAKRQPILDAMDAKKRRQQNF
Details: at 1 µM
Class definitions on inhibition: 1 (below 7%), 2 (7% to below 10%), 3 (10% or more)

Examples with answers:
CS(=O)(=O)CCN(CC#N)Cc1ccc(-c2ccc3ncnc(Nc4ccc(OCc5cccc(F)c5)c(Cl)c4)c3c2)o1: 1
COc1ccc(COc2ccc(Cc3cnc(N)nc3N)cc2OC)cc1: 1
CCn1c(-c2nonc2N)nc2ccncc21: 1

Which category does the recorded inhibition put O=C1NC(=O)C(N2CCc3ccccc32)=C1c1ccc(Cl)cc1 in? 2

Hey, which category is O=C1NC(=O)C(c2cccc(Cl)c2)=C1Nc1ccc(O)c(Cl)c1 in, do you know? 3

Hey, which category is Cn1cc(C=C2C(=O)Nc3cccnc32)c2ccccc21 in, do you know? 3

Which band does O=C1Nc2ccc(C(=O)c3ccco3)cc2C1=Cc1cc(Cl)c(O)c(Cl)c1 fall in? 3

Which category fits this record: Nc1ncnc2occ(-c3ccc(NC(=O)Nc4cccc(C(F)(F)F)c4)cc3)c12 3

// bin(item) where item = COC(=O)Nc1nc2cc(Oc3ccc(NC(=O)Nc4cccc(C(=O)O)c4)cc3)ccc2[nH]1 3

The entry to classify is CCn1c(-c2nonc2N)nc2cncc(C(=O)N3CCNCC3)c21 ; which class holds it? 2
